Every entry's value here was drawn from the supplement of paper PMC10567573.

B1: WDFY2 (parent)
chain: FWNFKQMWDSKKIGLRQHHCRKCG

variants of: B1; assay: protein stability index of a GFP-peptide fusion (GPS, HEK-293T) (PSI 1-6); higher = more stable; settings: c terminus: a fixed tail appended;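 note: lentivirally expressed fusions sorted by FACS into six bins by GFP to DsRed ratio, PSI derived from sequencing read proportions per bin multiplied by bin number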
Metric name: protein stability index
Answer using only a numeral; do not append any unit.

W8N: 3.72

Given `K22L` , state its recorded protein stability index.
1.47

Given `N3D` , state its recorded protein stability index.
2.05

Given `C20S` , state its recorded protein stability index.
2.49

Given `H18M` , state its recorded protein stability index.
1.38
